- TARGET ENTITY: hGLP-1R (Homo sapiens, UniProt P43220)
- Sequence (P43220 24-463): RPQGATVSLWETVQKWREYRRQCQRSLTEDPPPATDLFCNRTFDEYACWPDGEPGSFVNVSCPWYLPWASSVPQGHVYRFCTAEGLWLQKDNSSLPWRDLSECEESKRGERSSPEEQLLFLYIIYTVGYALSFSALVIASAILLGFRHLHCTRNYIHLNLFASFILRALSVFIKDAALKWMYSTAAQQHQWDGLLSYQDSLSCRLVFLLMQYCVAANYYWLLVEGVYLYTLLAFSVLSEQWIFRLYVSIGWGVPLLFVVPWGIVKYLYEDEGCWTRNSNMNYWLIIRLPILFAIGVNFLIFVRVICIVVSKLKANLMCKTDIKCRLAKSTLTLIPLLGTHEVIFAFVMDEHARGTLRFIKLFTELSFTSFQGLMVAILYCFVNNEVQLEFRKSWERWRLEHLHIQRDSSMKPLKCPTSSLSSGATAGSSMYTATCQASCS
- PROTOCOL DESCRIPTION: cell-based or functional assay
Starred links: 1 amine or outer side, 2 acyl side, 3 side chain; linkers in the order of their positions; H or OH if unused. Non-standard residues stand in square brackets, D forms with d. Groups on a side chain read outwards from the residue. No end group written: not given here. *: point of attachment. C20 diacid = O=C(O)CCCCCCCCCCCCCCCCCCC(=O)*; γGlu = O=C(O)[C@H](CCC(=O)[*:2])N[*:1]; αMeL = CC(C)C[C@](C)(N)C(=O)O; AEEA = NCCOCCOCC(=O)O; Aib = CC(C)(N)C(=O)O
MEASUREMENT KIND: cAMP Rel EC50 (1% HSA) (nM)
Quick reminder: number only, in nM, skip the unit.

Known results for binders:
BINDER	cAMP Rel EC50 (1% HSA) (nM)
YXQGTXTSDXSIXLDXKAQXXFIEXLIEGGPSSGEPPPETE (synthetic construct; SITE 2: note = 2-Aminoisobutyric Acid; SITE 6: note = alpha-methyl-2-fluoro-L-phenylalanine; SITE 10: note = 3-(4-Pyridyl)-L-alanine; SITE 13: note = alpha-methyl-leucine; SITE 16: note = L-ornithine; SITE 17: note = Lysine is chemically modified through conjugation of the epsil) [Example 686]	19.1
YXQGTXTSDXSILLDKKAQXAFIEYLXEGGPSSGAPPPSGTGE (synthetic construct; SITE 2: note = 2-Aminoisobutyric Acid; SITE 6: note = alpha-methyl-2-fluoro-L-phenylalanine; SITE 10: note = 3-(4-Pyridyl)-L-alanine; SITE 17: note = Lysine is chemically modified through conjugation of the epsilon-amino group of the Lysine side chain with (2-[2-(2-Amino-ethoxy))) [Example 663]	79
YXQGTXTSDXXIXLDXKAQXXFIEXLTEGGPSSGEPPPSGTGE (synthetic construct; SITE 2: note = 2-Aminoisobutyric Acid; SITE 6: note = alpha-methyl-2-fluoro-L-phenylalanine; SITE 10: note = 3-(4-Pyridyl)-L-alanine; SITE 11: note = alpha-methyl-L-serine; SITE 13: note = alpha-methyl-leucine; SITE 16: note = L-ornithine; SITE 17: note = Lysine is chemically mo) [Example 543]	32
YXQGTFTSDFSKXLDKKAQXAFIEXLIEXGPSSGAPPPSGS (non-natural residues, AEEA-γGlu-C18 diacid lysine acylation, C-terminal amide; synthetic construct; SITE 2: note = 2-Aminoisobutyric Acid; SITE 13: note = alpha-methyl-leucine; SITE 17: note = Lysine is chemically modified through conjugation of the epsilon-amino group of the Lysine side chain with (2-[2-(2-Amino-ethoxy)-ethoxy]-acetyl)-(gamma-Glu)-CO-(CH2) 16-CO2H; SITE 20: n) [Example 912]	59.6
YXQGTFTSDXSKXLDKKAQXAFIEXLIEXGPSSGAPPPSGS (Aib, 4Pal, αMeL, Me4Pal; acylated Lys; C-terminal amide; synthetic construct; SITE 2: note = 2-Aminoisobutyric Acid; SITE 10: note = 3-(4-Pyridyl)-L-alanine; SITE 13: note = alpha-methyl-leucine; SITE 17: note = Lysine is chemically modified through conjugation of the epsilon-amino group of the Lysine side chain with (2-[2-(2-Amino-ethoxy)-ethoxy]-acetyl)) [Example 914]	91.7

Now look at this entry.
Q: Using the record for Y[Aib]QGTFTSDYSI[αMeL]LDKQAAK([AEEA-AEEA-γGlu-C20 diacid])QFVEWLIA[Aib]GPSSGEPPPGEG-NH2 [Example 333] , report its cAMP Rel EC50 (1% HSA).
Ans: 182

Ref: patent US20240270821A1
